- Test system: COLO 205
- test: NCI tumour cell line growth inhibition, 48 h
Activity calls are given as the source filed them. No stated cut-off is given here; in the data, active = GI50 up to about 1.1 µM and inactive = higher.
The reply should name one outcome from active, inactive

compound: O=C(Nc1ccccn1)/C(=C\C(=O)c1ccc(Cl)cc1)Nc1ccccc1
target-or-system: COLO 205
label-class: inactive
//
compound: COc1ccc(N2C(=O)[C@H]3[C@H]4CC(C(C)(C)C)CC[C@H]4c4c(n(C)c5ccccc45)[C@H]3C2=O)cc1 (some centres undefined)
target-or-system: COLO 205
label-class: inactive
//
compound: CCOC(=O)c1ccc(NC(=O)Oc2ccc3c(C)cc(=O)oc3c2)cc1
target-or-system: COLO 205
label-class: inactive
//
compound: COc1ccc(NC(=S)NC(=O)c2ccc3c(c2)Sc2ccccc2O3)c([N+](=O)[O-])c1
target-or-system: COLO 205
label-class: inactive
//
compound: COC1(C)CCC(OS(C)(=O)=O)CO1 (centres undefined)
target-or-system: COLO 205
label-class: inactive

Please state the recorded outcome for this compound: OC1(c2ccccc2)CC2CCC(C1)N2CCc1ccccc1 (centres undefined)
inactive

Please state the recorded outcome for this compound: `COc1cccc2c1CCc1sc(CN3CCN(C)CC3)nc1-2`
inactive

Please state the recorded outcome for this compound: [O-][S+]1CSCS1 (centres undefined)
inactive

----------
- Tested on: HCT-116
- test: NCI tumour cell line growth inhibition, 48 h
Activity calls are given as the source filed them. Cut-off read from the data, not from the text of the source: active = GI50 up to about 1.1 µM and inactive = higher.
The reply should name one outcome from label 1 for active, label 0 for inactive

Use the examples below as a reference point.
molecule: COc1cc(C2c3cc4c(cc3[C@H](OCCN(C)C)[C@@H]3COC(=O)C23)OCO4)cc(OC)c1O (some centres undefined)
target-or-system: HCT-116
label-class: label 1

molecule: COc1ccc(/C=C\c2cc(OC)c(OC)c(OC)c2)cc1OC(=O)C(N)CCC(=O)O (centres undefined)
target-or-system: HCT-116
label-class: label 1

molecule: COC(=O)c1ccc(C)cc1CC1Cc2ccc(C)cc2C1=O (centres undefined)
target-or-system: HCT-116
label-class: label 0

molecule: CC(=O)O[C@H]1C(=O)[C@@]2(C)C([C@H](OC(=O)c3ccccc3)[C@]3(O)C[C@H](OC(=O)[C@H](O)[C@@H](NC(=O)c4ccc(Cl)cc4)c4ccccc4)C(C)=C1C3(C)C)C1(OC(C)=O)CO[C@@H]1C[C@@H]2O (some centres undefined)
target-or-system: HCT-116
label-class: label 1

Please state the recorded outcome for this molecule: O=C1CC2CCC(C1)[S+]2[O-] (centres undefined)
label 0

Please state the recorded outcome for this molecule: COc1cc([C@@H]2c3cc4c(cc3[C@H](OC3OC5COC(c6ccco6)OC5C(O)C3O)C3COC(=O)[C@@H]32)OCO4)cc(OC)c1OC (some centres undefined)
label 0

----------
- Test system: DLD-1
- test: NCI tumour cell line growth inhibition, 48 h
Calls of active or inactive are those of the source. Cut-off read from the data, not from the text of the source: active = GI50 up to about 1.1 µM and inactive = higher.
Let's look at some compounds and their measured GI50.

Form field GI50, entry OCC(O)CNc1ccnc2cc(Cl)ccc12 (stereo not drawn) : > 100 µM (inactive)

Form field GI50, entry `CN(C)CCNC(=O)c1cc(Cl)cc2ccc(-c3ccccc3)nc12` : 3.3 µM (inactive)

Form field GI50, entry `O=C(O/N=C1/CCC/C1=C\c1ccccc1)c1ccc(Cl)c(Cl)c1` : > 100 µM (inactive)

Form field GI50, entry `Cc1cc(C)cc(Sc2c([N+](=O)[O-])ncn2C)c1` : 11.9 µM (inactive)

Form field GI50, entry `Cc1c(CCCl)c(Cl)n2c(nc3ccccc32)c1C#N` : 1.12 µM (active)

Form field GI50, entry `CN(C)c1nc(N(C)C)nc(N(C)C)n1` : > 132 µM (inactive)

Form field GI50, entry CNC(=O)OCc1nc(SC2CCCCO2)n(C)c1COC(=O)NC (stereo not drawn) : > 100 µM (inactive)

Form field GI50, entry COC(=O)C(=O)C(C(=O)C=C(C)C)C(=O)C(=O)Nc1nc2ccc([N+](=O)[O-])cc2s1 (stereo not drawn) : 51.8 µM (inactive)

Form field GI50, entry `COc1ccc(/C=C/C(=O)c2sc(-n3nc(-c4ccccc4)cc3-c3ccccc3)nc2C)cc1` : > 10 µM (inactive)

Form field GI50, entry `CN(C)c1ccc2c(c1)C(=O)N(OS(=O)(=O)c1ccc([N+](=O)[O-])cc1)C2=O` : 24 µM (inactive)

// data source = ChEMBL document CHEMBL1201862
